experimental-protocol: Ultracentrifugation (UC) plasma protein binding assay, fraction unbound in plasma (fup)
condition-description: both, human, plasma, Fraction Unbound (fu), Run-specific Avg, run-specific average
property: fraction unbound at 5 h, 10 μM
Give the figure by itself; no unit, no explanation.

For Cc1ccc([N+](=O)[O-])cc1 [4-Nitrotoluene, 4-nitrotoluene, reference compound] , what is its reported fraction unbound at 5 h, 10 μM?
0.06

###

Kindly supply the reported PPB_Stab_Fail values for the records listed here.
System: human plasma
condition-description: both, human, plasma, 5 h, 10 μM

For COC(=O)C(F)(F)C(F)(F)OC(F)(C(F)(F)F)C(F)(F)OC(F)=C(F)F (stereo not drawn) , what is its reported PPB_Stab_Fail?
1

For C=CC(=O)OCC(F)(F)C(F)F [2,2,3,3-Tetrafluoropropyl acrylate] , what is its reported PPB_Stab_Fail?
1

For OCC(F)(F)OC(F)(F)C(F)(F)OC(F)(F)C(F)(F)OC(F)(F)CO , what is its reported PPB_Stab_Fail?
0

For FC(F)(F)C(F)(C(F)(F)F)C(F)(F)C(F)(F)CC1CO1 (stereo not drawn) , what is its reported PPB_Stab_Fail?
1

For NC(=O)C(F)(F)C(F)(F)F [Pentafluoropropionamide] , what is its reported PPB_Stab_Fail?
0

For OCC(F)(F)OC(F)(F)C(F)(F)OC(F)(F)CO , what is its reported PPB_Stab_Fail?
0

###

System: human plasma
experimental-protocol: Chemical stability in plasma over the UC assay time course (T5hr/T1hr)
condition-description: amount measured in plasma sample at 1 hr, run average, unit not given
property: Time 1 hr, Run-specific Avg
Give the figure by itself; no unit, no explanation.

Please tell me: Time 1 hr, Run-specific Avg of OCCC(F)(F)C(F)(F)C(F)(F)C(F)(F)C(F)(F)C(F)(F)F , system human plasma?
10506.38

Please tell me: Time 1 hr, Run-specific Avg of FC(F)(F)C(F)(F)C(F)(F)C(F)(F)CCI [1H,1H,2H,2H-Perfluorohexyl iodide] , system human plasma?
5050.49

Please tell me: Time 1 hr, Run-specific Avg of FC(F)(F)C(F)(F)CNCC(F)(F)C(F)(F)F , system human plasma?
12593.46

Please tell me: Time 1 hr, Run-specific Avg of OCCC(F)(F)C(F)(F)C(F)(F)C(F)(F)C(F)(F)C(F)(F)C(F)(F)C(F)(F)F , system human plasma?
10111.53

Please tell me: Time 1 hr, Run-specific Avg of FC(F)(Br)C(F)(F)C(F)(F)C(F)(F)C(F)(F)C(F)(F)Br , system human plasma?
9873.23

Please tell me: Time 1 hr, Run-specific Avg of OCCC(F)(F)C(F)(F)C(F)(F)C(F)(F)F , system human plasma?
12824.02

Please tell me: Time 1 hr, Run-specific Avg of OCC(F)(F)C(F)(F)C(F)(F)CO , system human plasma?
5773.88

Please tell me: Time 1 hr, Run-specific Avg of NCC(F)(F)C(F)(F)C(F)(F)C(F)(F)C(F)(F)C(F)(F)C(F)(F)F , system human plasma?
5260.63

Please tell me: Time 1 hr, Run-specific Avg of OCC(F)(F)C(F)(F)C(F)(F)C(F)(F)C(F)(F)C(F)(F)C(F)(F)C(F)(F)C(F)(F)C(F)(F)C(F)(F)F , system human plasma?
16932.71

Please tell me: Time 1 hr, Run-specific Avg of OCCCCC(F)(F)C(F)(F)C(F)(F)C(F)(F)F , system human plasma?
10142.56

Please tell me: Time 1 hr, Run-specific Avg of OCC(F)(F)C(F)(F)C(F)(F)C(F)(F)C(F)(F)C(F)(F)C(F)(F)C(F)(F)CO [1H,1H,10H,10H-Perfluorodecane-1,10-diol] , system human plasma?
6270.00

Please tell me: Time 1 hr, Run-specific Avg of C=C(C)C(=O)OCC(F)(F)C(F)(F)C(F)(F)C(F)F [1H,1H,5H-Perfluoropentyl methacrylate] , system human plasma?
1474.15

Please tell me: Time 1 hr, Run-specific Avg of FC(F)(I)C(F)(F)C(F)(F)C(F)(F)I , system human plasma?
1281.73

Please tell me: Time 1 hr, Run-specific Avg of OCC(F)(F)C(F)(F)C(F)(F)C(F)(F)C(F)(F)C(F)(F)F , system human plasma?
10422.90

Please tell me: Time 1 hr, Run-specific Avg of NCC(F)(F)C(F)(F)C(F)(F)C(F)(F)C(F)(F)C(F)(F)C(F)(F)C(F)(F)F , system human plasma?
11876.18

###

experimental-protocol: in vitro
condition-description: both, human, plasma, Mean fu
property: fraction unbound at 5 h, 10 μM
Give the figure by itself; no unit, no explanation.

For NS(=O)(=O)C(F)(F)C(F)(F)C(F)(F)C(F)(F)C(F)(F)C(F)(F)C(F)(F)C(F)(F)F [Perfluorooctanesulfonamide, reference compound] , what is its reported fraction unbound at 5 h, 10 μM?
0.0039

For OCC(F)(F)OC(F)(F)C(F)(F)OC(F)(F)C(F)(F)OC(F)(F)CO , what is its reported fraction unbound at 5 h, 10 μM?
0.0128

For OCC(F)(F)OC(F)(F)C(F)(F)OC(F)(F)CO , what is its reported fraction unbound at 5 h, 10 μM?
0.207

For NC(=O)C(F)(F)C(F)(F)F [Pentafluoropropionamide] , what is its reported fraction unbound at 5 h, 10 μM?
0.809

###

experimental-protocol: Hepatic metabolic stability (hepatocyte clearance) assay, substrate depletion
Assay type: in vitro ADME, human
condition-description: both sexes, human, hepatocytes, hepatocyte intrinsic clearance adjusted for background (abiotic) loss; read-out: Bkgd_adj_Clint
property: hepatocyte CLint at 1 μM (µL/min/1e6 cells)
I only need the number, in µL/min/1e6 cells, no unit after it.

For NC(=O)C(F)(F)C(F)(F)C(F)(F)F [Heptafluorobutyramide] , what is its reported hepatocyte CLint at 1 μM?
19.9

###

experimental-protocol: in vitro
condition-description: both, human, plasma, Fraction Unbound (fu), Run-specific Avg, average of one UC run
property: fraction unbound
Give the figure by itself; no unit, no explanation.

For FC(F)(Br)C(F)(F)C(F)(F)C(F)(F)C(F)(F)C(F)(F)Br , what is its reported fraction unbound?
0.00422

For FC(F)(I)C(F)(F)C(F)(F)C(F)(F)I , what is its reported fraction unbound?
0.00546

For OCC(F)(F)C(F)(F)C(F)(F)CO , what is its reported fraction unbound?
0.06

For OCC(F)(F)C(F)(F)C(F)(F)C(F)(F)C(F)(F)C(F)(F)C(F)(F)C(F)(F)CO [1H,1H,10H,10H-Perfluorodecane-1,10-diol] , what is its reported fraction unbound?
0.84

For OCCC(F)(F)C(F)(F)C(F)(F)C(F)(F)F , what is its reported fraction unbound?
0.17

For FC(F)(I)C(F)(F)C(F)(F)C(F)(F)C(F)(F)C(F)(F)I , what is its reported fraction unbound?
0.0256

For NC(=O)C(F)(F)C(F)(F)C(F)(F)F [Heptafluorobutyramide] , what is its reported fraction unbound?
0.6

For C=C(C)C(=O)OCC(F)(F)C(F)(F)C(F)(F)C(F)F [1H,1H,5H-Perfluoropentyl methacrylate] , what is its reported fraction unbound?
0.25

###

experimental-protocol: in vitro
condition-description: both, human, plasma, Fraction Unbound (fu), replicates A, B, C, single replicate of one UC run (aqueous fraction / Time 5 hr)
Kindly supply the reported fraction unbound values for the records listed here.
Give the figure by itself; no unit, no explanation.

For OCCCC(F)(F)C(F)(F)C(F)(F)C(F)(F)C(F)(F)C(F)(F)C(F)(F)C(F)(F)F , what is its reported fraction unbound?
0.0277

For OCCCC(F)(F)C(F)(F)C(F)(F)F , what is its reported fraction unbound?
0.179

For OCC(F)(F)C(F)(F)C(F)(F)C(F)(F)C(F)(F)C(F)(F)C(F)(F)C(F)(F)CO [1H,1H,10H,10H-Perfluorodecane-1,10-diol] , what is its reported fraction unbound?
0.00438

For O=C(CC(=O)C(F)(F)C(F)(F)C(F)(F)F)c1cccs1 , what is its reported fraction unbound?
0.00885

###

experimental-protocol: Hepatic metabolic stability (hepatocyte clearance) assay, substrate depletion
Assay type: in vitro ADME, human
condition-description: both sexes, human, hepatocytes, hepatocyte clearance, Conc 1000 nM, background adjusted; read-out: Bkgd Adj Clint
property: hepatocyte CLint at 1 μM (µL/min/1e6 cells)
I only need the number, in µL/min/1e6 cells, no unit after it.

For NC(=O)C(F)(F)C(F)(F)C(F)(F)F [Heptafluorobutyramide] , what is its reported hepatocyte CLint at 1 μM?
19.9
